meta.source: PubChem BioAssay AID429

Task for the reader: assign each of the following compounds its reported inhibition.
Molecular target: Heat shock protein HSP 90-alpha (Homo sapiens) (UniProt P07900)
Assay: tumor Hsp90 inhibitors, primary screen, cell lysate, fluorescence polarization, NCI-N417 lysate (AID 429);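 note: 0% = tracer plus lysate wells and 100% = tracer alone without lysate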
Settings: NCI-N417 lysate Hsp90, Cy3B-geldanamycin FP displacement; at 30 µM; active compounds read high
About 220 (0.34%) of roughly 64,000 compounds were called active. The list comes from a sample in which actives are over-represented; it also holds close analogues and randomly drawn compounds.
Could you give me the number in %? Just the number is fine.

// sample N#CC1=C(N)Oc2n[nH]c(CSc3ccccc3)c2C12C(=O)Nc1ccccc12 (stereo not given) , its inhibition was -11.3

Lab note: measured inhibition of `Cc1ccc(C(=O)Nc2nnc(-c3cccs3)s2)cc1C` was -0.3

Entry `O=C(OCC(=O)c1cccs1)C1=COCCO1` ; inhibition = -6.24

Given item `COc1cc(C(=O)Nc2oc(-c3ccccc3)c(-c3ccccc3)c2C#N)cc(OC)c1OC` , the value recorded as its inhibition is 1.74

`Cc1cccc(Cn2c(N3CCN(c4ccccc4)CC3)nc3c2c(=O)n(C)c(=O)n3C)c1` has a reported inhibition of -2.67

The recorded inhibition for `Cc1nn(-c2ccccc2)c(CC(C)(C)C(=O)O)c1C(=O)O` is 0.74

Measured inhibition, O=C(O)C1CCCN(CCC=C(c2ccccc2)c2ccccc2)C1 (stereo not given) : 0.96

Per the records, this compound ( `O=C(Nc1ccn(Cc2ccc(F)cc2)n1)c1ccncc1` ) has inhibition equal to -2.29

Record summary for CC1Cc2ccccc2N1C(=O)CSc1nnc(-c2ccc(S(=O)(=O)N3CCCCC3)cc2)o1 (stereo not given) : reported inhibition = -0.41

compound `CC(=O)c1ccc(-n2nnnc2SCC(=O)N2CCN(C(=O)c3ccco3)CC2)cc1` , inhibition observed: -0.68

###

Biological target: Heat shock protein HSP 90-alpha (Homo sapiens) (UniProt P07900)
Test: tumor Hsp90 inhibitors, primary screen, cell lysate, fluorescence polarization, NCI-N417 lysate (AID 429);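 note: 0% = tracer plus lysate wells and 100% = tracer alone without lysate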
Conditions: NCI-N417 lysate Hsp90, Cy3B-geldanamycin FP displacement; at 30 µM
Out of some 64,000 compounds screened, about 220 (0.34%) were called active.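 How the source made its calls: active means inhibition above 50%; inactive means the rest.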 The entries come from a sample that favours actives as a whole.
// one of active, inactive, no free text

Exercise: For this compound, state the assay outcome: `O=C(CCN1C(=O)c2ccccc2C1=O)NCCN1CCOCC1`
Solution: inactive

Exercise: // param item: O=C(CC1N=C2c3ccccc3N=C(SCc3ccccc3Cl)N2C1=O)NCc1ccco1 (configuration not stated) ; yields the recorded call
Solution: inactive

Exercise: What classification did `C[C@H](NC(=O)NCCc1ccccc1)C(=O)O` end up with in this test?
Solution: inactive

Exercise: Which outcome was entered for the compound `CCCn1c(=O)c2ccccc2n2c(SCC(=O)/C(C#N)=C(\C)N)nnc12` in this test?
Solution: inactive

Exercise: What did the test return for `COc1ccccc1OCCOc1ccc(/C=N/n2cnnc2)cc1` ?
Solution: inactive

Exercise: How did this test come out for `CCCCc1nc2ccccc2c(NC(=O)CN2CCN(C)CC2)c1CCC` ?
Solution: inactive

Exercise: Could you check what this test reported for `Oc1cc2c(cc1O)CN(C(=S)NCCc1ccc(Cl)cc1)CCC2` ?
Solution: active
